# TEST: Size distribution, polydispersity and Z-potential of LNPs by dynamic light scattering (Malvern Zetasizer)
# Assay type: physicochemical
# EXPERIMENTAL SETUP: LNPs, standard formulation 50:10:38.5:1.5; DLS
# Experimental: The LNP solution was then adjusted to a final concentration of mRNA of 100 µg/ml. Size distribution, polydispersity and Z-potential were measured by dynamic light scattering (DLS) using Malvern Zetasizer Advance Lab Blue Label. RNA encapsulation was assessed by Quant-IT® Ribogreen following the manufacturer's instructions.
MEASURE NAME: Particle size/ Ø (nm)

• CCCCCCCCC(CCCCCC)C(=O)NC(CCSCCC(=O)OCCCCCC)C(=O)NCCCN1CCOCC1 (centres unmarked) = 120
• CCCCCCCCC(CCCCCC)COC(=O)CCSCC(CC(=O)NCCCN1CCOCC1)C(=O)OC(CCCCCCCC)CCCCCCCC (centres unmarked) = 154.7
• CCCCCCCCCCCCCOC(=O)CCSCCC(NC(=O)C(CCCCCC)CCCCCCCC)C(=O)NCC1CCN(C)CC1 (centres unmarked) = 136.1
• CCCCCCCCC(CCCCCCCC)OC(=O)C(CSCCC(=O)OCCCCCC(C)C)CC(=O)NCCCN1CCOCC1 (centres unmarked) = 145.5
• CCCCCCCC/C=C\CCCCCCCC(=O)NC(CCSCCC(=O)OCCCCCC(C)C)C(=O)NCCCN(CCO)CCO (centres unmarked) = 178.6
• CCCCCCCC/C=C\CCCCCCCC(=O)NC(CCSCCC(=O)OCCCCCCCC(C)C)C(=O)NCCCN(CCO)CCO (centres unmarked) = 177.7
• CCCCCCCCCCCCOC(=O)CCSCCC(NC(=O)C(CCCCCC)CCCCCCCC)C(=O)NCCCN1CCCC1 (centres unmarked) = 177.3
• CCCCCCCC#CCOC(=O)CCSCCC(C(=O)NC1CCN(C)CC1)C(=O)OC(CCCCCCCC)CCCCCCCC (centres unmarked) = 171.8
• CCCCCCCCCCC(CCCCCCCC)C(=O)NC(CCSCCC(=O)OCCCCCC(C)C)C(=O)NCC1CCN(C)CC1 (centres unmarked) = 141.7
• CCCCCCCCC(CCCCCC)C(=O)NC(CCSCCC(=O)OCC(CC)CCCC)C(=O)NCCCn1ccnc1 (centres unmarked) = 138.8
• CCCCCCCCC(CCCCCC)C(=O)NC(CCSCCC(=O)OCCCCCC(C)C)C(=O)NCCN1CCN(C)CC1 (centres unmarked) = 158.7
• CCCCCCCC/C=C\CCCCCCCCOC(=O)CCSCCC(NC(=O)C(CCCCCC)CCCCCCCC)C(=O)NCCCN1CCOCC1 (centres unmarked) = 169.3
• CCCCCCCCCCCCOC(=O)CCSCCC(NC(=O)C(CCCCCCCC)CCCCCCCCCC)C(=O)NCC1CCN(C)CC1 (centres unmarked) = 155.6
• CCCCCCCCCCCCCCCCOC(=O)CCSCCC(NC(=O)C(CCCCCC)CCCCCCCC)C(=O)NCCCN1CCCC1 (centres unmarked) = 248

----------
# TEST: Size distribution, polydispersity and Z-potential of LNPs by dynamic light scattering (Malvern Zetasizer)
# Type: physicochemical
# EXPERIMENTAL SETUP: LNPs, standard formulation 50:10:38.5:1.5; DLS
Recorded P.D.I. for the following molecules
MEASURE NAME: P.D.I.

- CCCCCCCCCCCCOC(=O)CCSCC(CC(=O)NCCCN1CCOCC1)C(=O)OC(CCCCCCCC)CCCCCCCC (stereo not shown): 0.12
- CCCCCCCCC(CCCCCC)C(=O)NC(CCSCCC(=O)OCC(CC)CCCC)C(=O)NCCCN1CCCC1 (stereo not shown): 0.16
- CCCCCCCCC(CCCCCC)C(=O)NC(CCSCCC(=O)OCCCCCCCC(C)C)C(=O)NCC1CCN(C)CC1 (stereo not shown): 0.16
- CCCCCCCCCCC(CCCCCCCC)C(=O)NC(CCSCCC(=O)OCCCCCCCC(C)C)C(=O)NC1CCN(C)CC1 (stereo not shown): 0.11
- CCCCCCCCCCCCCCCCCC(=O)NC(CCSCCC(=O)OCCCCCCCCCCCCC)C(=O)NCCCN1CCOCC1 (stereo not shown): 0.16
- CCCCCCCC#CCOC(=O)CCSCCC(NC(=O)CCCCCCC/C=C\CCCCCCCC)C(=O)NCCCN1CCOCC1 (stereo not shown): 0.13
- CCCCCCCCCCCCCCCCCC(=O)NC(CCSCCC(=O)OCCCCCCCCCCCCC)C(=O)NC1CCN(C)CC1 (stereo not shown): 0.2
- CCCCCCCCC(CCCCCC)COC(=O)CCSCCC(NC(=O)C(CCCCCC)CCCCCCCC)C(=O)NCCN(CC)CC (stereo not shown): 0.21
- CCCCCCCCCCCCCCCCCCOC(=O)CCSCCC(NC(=O)C(CCCCCC)CCCCCCCC)C(=O)NCCCn1ccnc1 (stereo not shown): 0.11
- CCCCCCCCC(CCCCCCCC)OC(=O)C(CCSCCC(=O)OCCCCCCCC(C)C)C(=O)NCCCn1ccnc1 (stereo not shown): 0.13
- CCCCCCCCCCCCCOC(=O)CCSCCC(NC(=O)C(CCCCCC)CCCCCCCC)C(=O)NCCCn1ccnc1 (stereo not shown): 0.12
- CCCCCCCCCCC(CCCCCCCC)C(=O)NC(CCSCCC(=O)OCC(CCCCCC)CCCCCCCC)C(=O)NCC1CCN(C)CC1 (stereo not shown): 0.13
- CCCCCCCCCCCCCOC(=O)CCSCCC(C(=O)NC1CCN(C)CC1)C(=O)OC(CCCCCCCC)CCCCCCCC (stereo not shown): 0.12
- CCCCCCCCCCCCCCCCCCOC(=O)CCSCC(CC(=O)NCCCN1CCOCC1)C(=O)OC(CCCCCCCC)CCCCCCCC (stereo not shown): 0.14
- CCCCCCCCC(CCCCCC)C(=O)NC(CCSCCC(=O)OCCCCCC(C)C)C(=O)NCCCN1CCOCC1 (stereo not shown): 0.24
- CCCCCCCCCCCCCCCCOC(=O)CCSCCC(NC(=O)C(CCCCCC)CCCCCCCC)C(=O)NC1CCN(C)CC1 (stereo not shown): 0.35
